B1: CPEB3 Ribozyme (parent)
chain: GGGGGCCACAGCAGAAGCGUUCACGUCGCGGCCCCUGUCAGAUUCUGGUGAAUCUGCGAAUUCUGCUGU

- Variants of: B1
- runDescription: self-cleavage, relative activity (ratio to wild type); higher = more cleavage; co-transcriptional

mutantDesignation: G31U A42G
self-cleavage: 0.692
--
mutantDesignation: A13C U21G
self-cleavage: 0.135
--
mutantDesignation: C33U A51G
self-cleavage: 0.922
--
mutantDesignation: G4U U36C
self-cleavage: 0.651
--
mutantDesignation: G2U G25A
self-cleavage: 0.0393
--
mutantDesignation: A10U U21G
self-cleavage: 0.581
--
mutantDesignation: G25A C29G
self-cleavage: 0.216
--
mutantDesignation: C7G A16C
self-cleavage: 0.0882
--
mutantDesignation: G31U U55G
self-cleavage: 0.274
--
mutantDesignation: A16U U67G
self-cleavage: 0.9
--
mutantDesignation: A15G G48U
self-cleavage: 0.989
--
mutantDesignation: G4C C32U
self-cleavage: 0.198
--
mutantDesignation: G3A C54U
self-cleavage: 0.602
--
mutantDesignation: A13G C32A
self-cleavage: 0.773
--
mutantDesignation: C33G C45U
self-cleavage: 0.641
--
mutantDesignation: G37U U44A
self-cleavage: 0.213
--
mutantDesignation: C32A U67G
self-cleavage: 0.936
--
mutantDesignation: U49C U53C
self-cleavage: 0.948
--
mutantDesignation: A59U U62A
self-cleavage: 0.536
